Taken from ChEMBL document CHEMBL1157580.

Assay: Partition coefficient, log P at pH 6 by shake flask method
Type: physicochemical
Conditions: octanol/water
Form field: logD (one value per entry).
Measured parameter: logD

item_smiles=Clc1cccc(Cl)c1/C=N/N=c1ccn(Cc2c(Cl)cccc2Cl)cc1 measured_parameter=logD observed_measurement=1.5
item_smiles=Clc1cccc(Cl)c1/C=N/N=c1ccn(CCCc2ccccc2)cc1 measured_parameter=logD observed_measurement=0.9

---

Below is a list of entries, each paired with its recorded logP value.
Assay: Octanol-water partition coefficient, log P at pH 7.4 by RP-HPLC
Type: physicochemical
Measured parameter: logP

item_smiles=Cn1ccc(=N/N=C/c2c(Cl)cccc2Cl)cc1 observed_measurement=3.4
item_smiles=Clc1cccc(Cl)c1CO/N=C/c1cc[n+](CCC[n+]2ccc(/C=N/OCc3c(Cl)cccc3Cl)cc2)cc1.[Br-].[Br-] observed_measurement=0.65
item_smiles=Clc1cccc(Cl)c1CON=C1CCN(CCCc2ccccc2)CC1 observed_measurement=4.3
item_smiles=Clc1cccc(Cl)c1/C=N/N=c1ccn(CCCc2ccccc2)cc1 observed_measurement=3.7
item_smiles=Clc1cccc(Cl)c1/C=N/N=c1ccn(CCc2ccccc2)cc1 observed_measurement=3.9
item_smiles=Clc1cccc(Cl)c1/C=N/N=c1ccn(Cc2c(Cl)cccc2Cl)cc1 observed_measurement=4
item_smiles=Clc1cccc(Cl)c1/C=N/N=c1ccn(Cc2ccccc2)cc1 observed_measurement=3.5
item_smiles=Clc1cccc(Cl)c1CO/N=C/C1CCN(CCCc2ccccc2)CC1 observed_measurement=3.6

---

Experiment: Dissociation constant, pKa at pH 7.4
Assay type: physicochemical
Measured parameter: pKa

item_smiles=Clc1cccc(Cl)c1CO/N=C/C1CCN(CCCc2ccccc2)CC1 measured_parameter=pKa observed_measurement=7.1
item_smiles=Clc1cccc(Cl)c1/C=N/N=c1ccn(CCCc2ccccc2)cc1 measured_parameter=pKa observed_measurement=8.7
item_smiles=Clc1cccc(Cl)c1CON=C1CCN(CCCc2ccccc2)CC1 measured_parameter=pKa observed_measurement=5.7

---

Measured logD, listed per entry.
Test: Partition coefficient, log P at pH 7.4 by shake flask method
Type: physicochemical
Details: octanol/water
Measured parameter: logD

item_smiles=Clc1cccc(Cl)c1/C=N/N=c1ccn(CCCc2ccccc2)cc1 measured_parameter=logD observed_measurement=3.2
item_smiles=Clc1cccc(Cl)c1/C=N/N=c1ccn(Cc2c(Cl)cccc2Cl)cc1 measured_parameter=logD observed_measurement=3.4

---

Assay: Partition coefficient, log P at pH 5 by shake flask method
Assay type: physicochemical
Conditions: octanol/water
A collection of compounds and their measured logD
Measured parameter: logD

item_smiles=Clc1cccc(Cl)c1/C=N/N=c1ccn(Cc2c(Cl)cccc2Cl)cc1 observed_measurement=0.8
item_smiles=Clc1cccc(Cl)c1/C=N/N=c1ccn(CCCc2ccccc2)cc1 observed_measurement=0.7

---

Experiment: Inhibition of fibril formation of amyloid beta (1-40) catalytic domain containing HHQKLVFFAED sequence by thioflavin T assay
Active and inactive are the calls of the source. The calls are words filed in the database; no cut-off is given here.
Measured parameter: inhibition

item_smiles=Clc1cccc(Cl)c1CO/N=C/c1cc[n+](CCCc2ccccc2)cc1 observed_measurement=Active
item_smiles=Clc1cccc(Cl)c1CO/N=C/c1cc[n+](CCC[n+]2ccc(/C=N/OCc3c(Cl)cccc3Cl)cc2)cc1.[Br-].[Br-] observed_measurement=Active
item_smiles=Clc1cccc(Cl)c1/C=N/N=c1ccn(CCCc2ccccc2)cc1 observed_measurement="Dose-dependent effect"
item_smiles=Clc1cccc(Cl)c1/C=N/N=c1ccn(CCc2ccccc2)cc1 observed_measurement="Dose-dependent effect"

---

Target: UniProt:O42275
Sequence (O42275 whole entry): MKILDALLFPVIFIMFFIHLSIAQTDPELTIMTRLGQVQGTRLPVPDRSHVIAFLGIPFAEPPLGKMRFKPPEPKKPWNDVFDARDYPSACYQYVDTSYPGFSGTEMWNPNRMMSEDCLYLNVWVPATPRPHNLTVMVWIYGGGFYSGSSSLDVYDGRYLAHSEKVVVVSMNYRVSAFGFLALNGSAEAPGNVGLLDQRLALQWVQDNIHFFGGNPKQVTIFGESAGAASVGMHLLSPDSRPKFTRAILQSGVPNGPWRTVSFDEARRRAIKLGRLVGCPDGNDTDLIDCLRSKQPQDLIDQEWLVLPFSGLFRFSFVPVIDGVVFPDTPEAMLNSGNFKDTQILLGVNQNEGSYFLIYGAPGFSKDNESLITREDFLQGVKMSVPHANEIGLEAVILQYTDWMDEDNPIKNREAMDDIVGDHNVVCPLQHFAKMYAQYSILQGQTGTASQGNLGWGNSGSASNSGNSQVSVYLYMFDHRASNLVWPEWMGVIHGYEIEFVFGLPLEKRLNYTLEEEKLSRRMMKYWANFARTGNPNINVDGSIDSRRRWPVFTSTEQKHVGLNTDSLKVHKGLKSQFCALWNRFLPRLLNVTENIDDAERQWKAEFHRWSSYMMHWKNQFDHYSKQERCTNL
Reported IC50 is given for each of the following compounds.
Measured parameter: IC50 (µM)

item_smiles=Cn1ccc(=N/N=C/c2c(Cl)cccc2Cl)cc1 measurement_target=UniProt:O42275 observed_measurement=739
item_smiles=Clc1cccc(Cl)c1/C=N/N=c1ccn(Cc2ccccc2)cc1 measurement_target=UniProt:O42275 observed_measurement=17.4
item_smiles=Clc1cccc(Cl)c1CO/N=C/C1CCN(CCCc2ccccc2)CC1 measurement_target=UniProt:O42275 observed_measurement=19.1
item_smiles=Clc1cccc(Cl)c1CON=C1CCN(CCCc2ccccc2)CC1 measurement_target=UniProt:O42275 observed_measurement=12
item_smiles=Clc1cccc(Cl)c1CO/N=C/c1cc[n+](CCC[n+]2ccc(/C=N/OCc3c(Cl)cccc3Cl)cc2)cc1.[Br-].[Br-] measurement_target=UniProt:O42275 observed_measurement=0.34
item_smiles=Clc1cccc(Cl)c1/C=N/N=c1ccn(CCc2ccccc2)cc1 measurement_target=UniProt:O42275 observed_measurement=56.7
item_smiles=Clc1cccc(Cl)c1/C=N/N=c1ccn(Cc2c(Cl)cccc2Cl)cc1 measurement_target=UniProt:O42275 observed_measurement=6.4
item_smiles=Clc1cccc(Cl)c1CO/N=C/c1cc[n+](CCCc2ccccc2)cc1 measurement_target=UniProt:O42275 observed_measurement=0.18
item_smiles=Clc1cccc(Cl)c1/C=N/N=c1ccn(CCCc2ccccc2)cc1 measurement_target=UniProt:O42275 observed_measurement=5.66

---

Test: Induction of fibril destruction of amyloid beta (1-40) catalytic domain containing HHQKLVFFAED sequence by modified thioflavin T assay
The source made the active and inactive calls. The rule behind the calls is not given here.
Classes used: 1 (active), 0 (inactive)

item_smiles=Clc1cccc(Cl)c1/C=N/N=c1ccn(CCc2ccccc2)cc1 assigned_class=1
item_smiles=Clc1cccc(Cl)c1/C=N/N=c1ccn(Cc2ccccc2)cc1 assigned_class=1
item_smiles=Clc1cccc(Cl)c1/C=N/N=c1ccn(CCCc2ccccc2)cc1 assigned_class=1
item_smiles=Cn1ccc(=N/N=C/c2c(Cl)cccc2Cl)cc1 assigned_class=0
item_smiles=Clc1cccc(Cl)c1/C=N/N=c1ccn(Cc2c(Cl)cccc2Cl)cc1 assigned_class=1
